Source: patent US12208110B2

Test system: MT-4 cells
Experiment: MT4 cytotoxicity analysis (CellTiter-Glo)
Format: cell-based
Conditions: human, 5 days

# molecule, CC50 / µM
data = [
    ("CCCCCCCCCCCCCCCCCCOC[C@H](COP(=O)(O)OC[C@H]1O[C@@](C#N)(c2ccc3c(N)ncnn23)[C@H](O)[C@@H]1O)NC(=O)c1cccc(C#N)c1", 50),
    ("CCCCCCCCCCCCSCCCOP(=O)(O)OC[C@H]1O[C@@](C#N)(c2ccc3c(N)ncnn23)[C@H](O)[C@@H]1O", 50),
    ("CCCCCCCCCCCCCCCCCCOC[C@H](COP(=O)(O)OC[C@H]1O[C@@](C#N)(c2ccc3c(N)ncnn23)[C@H](O)[C@@H]1O)NC(=O)c1ccccc1", 50),
    ("CCCCCCCCCCCCCCCCCCOC[C@@H](OCc1ccccc1)C(C)OP(=O)(O)OC[C@H]1O[C@@](C#N)(c2ccc3c(N)ncnn23)[C@H](O)[C@@H]1O (single isomer, unassigned) [Example 12]", 10),
    ("CCCCCCCCCCCCCCCCCCOC[C@H](COP(=O)(O)OC[C@H]1O[C@@](C#N)(c2ccc3c(N)ncnn23)[C@H](O)[C@@H]1O)OC(=O)c1ccccc1", 50),
]

* * *

Examples of molecules with documented CC50 at 5 days follow.
Assay: MT4 cytotoxicity analysis (CellTiter-Glo)
Assay type: cell-based
Settings: human, MT4 CC50 (nM)
parameter: CC50 at 5 days (nM)

# molecule, parameter, numericValue
records = [
    ("CCCCCCCCCCCCCCCCCCOC[C@H](COP(=O)(O)OC[C@H]1O[C@@](C#N)(c2ccc3c(N)ncnn23)[C@H](O)[C@@H]1O)NC(=O)c1ccccc1C(=O)O [Example 14]", "CC50 at 5 days", 26000),
    ("CCCCCCCCCCCCCCCCCCN(C)C(=O)[C@H](COP(=O)(O)OC[C@H]1O[C@@](C#N)(c2ccc3c(N)ncnn23)[C@H](O)[C@@H]1O)OCc1cc(F)cc(C#N)c1 [Example 56]", "CC50 at 5 days", 200),
    ("CCCCCCCCCCCCCCCCCCOC[C@H](COP(=O)(O)OC[C@H]1O[C@@](C#N)(c2ccc3c(N)ncnn23)[C@H](O)[C@@H]1O)Oc1cc(OC)c(C#N)c(OC)c1 [Example 34]", "CC50 at 5 days", 460),
    ("CCCCCCCCCCCCCCC#CC[C@H](COP(=O)(O)OC[C@H]1O[C@@](C#N)(c2ccc3c(N)ncnn23)[C@H](O)[C@@H]1O)OCc1ccccc1 [Example 73]", "CC50 at 5 days", 3500),
    ("CCCCCCCCCCCCCCCCCCOC[C@H](CO[P@@](=O)(S)OC[C@H]1O[C@@](C#N)(c2ccc3c(N)ncnn23)[C@H](O)[C@@H]1O)OCc1ccccc1 [Example 28]", "CC50 at 5 days", 24000),
    ("CCCCCCCCCCCCCCCCCCC[C@H](COP(=O)(O)OC[C@H]1O[C@@](C#N)(c2ccc3c(N)ncnn23)[C@H](O)[C@@H]1O)OCc1cc(F)cc(C#N)c1 [Example 35]", "CC50 at 5 days", 830),
    ("CCCCCCCCCCCCCCC#CC[C@H](COP(=O)(O)OC[C@H]1O[C@@](C#N)(c2ccc3c(N)ncnn23)[C@H](O)[C@@H]1O)OCc1cc(F)cc(C#N)c1 [Example 74]", "CC50 at 5 days", 300),
    ("CCCCCCCCCCCCCCCCCCOC[C@H](COP(=O)(O)OC[C@H]1O[C@@](C#N)(c2ccc3c(N)ncnn23)[C@H](O)[C@@H]1O)OCc1cc(OC)c(C#N)c(OC)c1 [Example 55]", "CC50 at 5 days", 270),
    ("CCCCCCCCCCCCCCCCCCOC[C@H](COP(=O)(O)OC[C@H]1O[C@@](C#N)(c2ccc3c(N)ncnn23)[C@H](O)[C@@H]1O)Oc1c(C#N)cc(C)cc1C#N [Example 29]", "CC50 at 5 days", 500),
    ("CCCCCCCCCCCCCCCCCCC[C@H](COP(=O)(O)OC[C@H]1O[C@@](C#N)(c2ccc3c(N)ncnn23)[C@H](O)[C@@H]1O)OCc1ccccc1 [Example 72]", "CC50 at 5 days", 3800),
    ("CCCCCCCCCCCCCCCCCCOC[C@H](COP(=O)(O)OC[C@H]1O[C@@](C#N)(c2ccc3c(N)ncnn23)[C@H](O)[C@@H]1O)NC(=O)c1ccccc1C#N [Example 58]", "CC50 at 5 days", 43000),
    ("CCCCCCCCCCCCCCCCCCOC[C@H](COP(=O)(O)OC[C@H]1O[C@@](C#N)(c2ccc3c(N)ncnn23)[C@H](O)[C@@H]1O)N1Cc2cc(Cl)c(Cl)cc2C1 [Example 9]", "CC50 at 5 days", 20000),
    ("CCCCCCCCCCCCCCCCCCOC[C@H](COP(=O)(O)OC[C@H]1O[C@@](C#N)(c2ccc3c(N)ncnn23)[C@H](O)[C@@H]1O)OCc1cc(F)cc(S(C)(=O)=O)c1 [Example 32]", "CC50 at 5 days", 340),
    ("CCCCCCCCCCCCCCC#CC[C@H](COP(=O)(O)OC[C@H]1O[C@@](C#N)(c2ccc3c(N)ncnn23)[C@H](O)[C@@H]1O)OCc1ccc(C#N)c(F)c1 [Example 75]", "CC50 at 5 days", 230),
    ("CCCCCCCCCCCCCCCCCCOC[C@H](COP(=O)(O)OC[C@H]1O[C@@](C#N)(c2ccc3c(N)ncnn23)[C@H](O)[C@@H]1O)N(C)Cc1ccccc1 [Example 2]", "CC50 at 5 days", 25000),
    ("CCCCCCCCCCCCCCSCCCOP(=O)(O)OC[C@H]1O[C@@](C#N)(c2ccc3c(N)ncnn23)[C@H](O)[C@@H]1O [Example 61]", "CC50 at 5 days", 12000),
    ("CCCCCCCCCCCCCCCCCCC[C@H](COCc1ccc(C#N)cc1F)OP(=O)(O)OC[C@H]1O[C@@](C#N)(c2ccc3c(N)ncnn23)[C@H](O)[C@@H]1O [Example 69]", "CC50 at 5 days", 48000),
    ("CCCCCCCCCCCCCCCCCCOC[C@H](COP(=O)(O)OC[C@H]1O[C@@](C#N)(c2ccc3c(N)ncnn23)[C@H](O)[C@@H]1O)Oc1cc(C)c(C#N)cc1F [Example 49]", "CC50 at 5 days", 1100),
    ("CCCCCCCCCCCCCCCCCCOC[C@H](COc1cc(F)cc(C#N)c1)OP(=O)(O)OC[C@H]1O[C@@](C#N)(c2ccc3c(N)ncnn23)[C@H](O)[C@@H]1O [Example 39]", "CC50 at 5 days", 2800),
    ("CCCCCCCCCCCCCCCCCCOC[C@H](COP(=O)(O)OC[C@H]1O[C@@](C#N)(c2ccc3c(N)ncnn23)[C@H](O)[C@@H]1O)Oc1ccc(C#N)c(OC)c1F [Example 48]", "CC50 at 5 days", 160),
    ("CCCCCCCCCCCCCCCCOCCOP(=O)(O)OC[C@H]1O[C@@](C#N)(c2ccc3c(N)ncnn23)[C@H](O)[C@@H]1O [Example 66]", "CC50 at 5 days", 29000),
]

* * *

Assay: MT4 cytotoxicity analysis (CellTiter-Glo)
Assay type: cell-based
Conditions: human, MT4 CC50 (nM)
# log10(CC50 at 5 days) annotations
parameter: log10(CC50 at 5 days) (log10 of the value in nM)

# compoundStructureString, numericValue
records = [
    ("CCCCCCCCCCCCCCCCCCOC[C@H](COCc1cc(F)cc(C#N)c1)OP(=O)(O)OC[C@H]1O[C@@](C#N)(c2ccc3c(N)ncnn23)[C@H](O)[C@@H]1O", 4.45),
    ("CCCCCCCCCCCCCCCCCCOC[C@H](COc1ccc(C#N)cn1)OP(=O)(O)OC[C@H]1O[C@@](C#N)(c2ccc3c(N)ncnn23)[C@H](O)[C@@H]1O", 3.28),
    ("CCCCCCCCCCCCCCCCCCOC[C@H](COP(=O)(O)OC[C@H]1O[C@@](C#N)(c2ccc3c(N)ncnn23)[C@H](O)[C@@H]1O)Oc1cc(OC)c(C#N)cc1F", 2.57),
    ("CCCCCCCCCCCCCCCCCCOC[C@H](COP(=O)(O)OC[C@H]1O[C@@](C#N)(c2ccc3c(N)ncnn23)[C@H](O)[C@@H]1O)OCc1cc(F)cc(C(=O)O)c1", 4.40),
    ("CCCCCCCCCCCCCCCCCCOC[C@H](COP(=O)(O)OC[C@H]1O[C@@](C#N)(c2ccc3c(N)ncnn23)[C@H](O)[C@@H]1O)OCc1cc(F)c(CCC)c(C#N)c1", 3.83),
    ("CCCCCCCCCCCCCCCCCCOC[C@H](COP(=O)(O)OC[C@H]1O[C@@](C#N)(c2ccc3c(N)ncnn23)[C@H](O)[C@@H]1O)N1Cc2ccccc2C1", 4.30),
    ("CCCCCCCCCCCCCCCCCCOC[C@H](COP(=O)(O)OC[C@H]1O[C@@](C#N)(c2ccc3c(N)ncnn23)[C@H](O)[C@@H]1O)Nc1cccc(C#N)c1", 3.28),
    ("CCCCCCCCCCCCCCCCCCOC[C@H](COP(=O)(O)OC[C@H]1O[C@@](C#N)(c2ccc3c(N)ncnn23)[C@H](O)[C@@H]1O)N(C)C(=O)c1ccc(F)c(Cl)c1", 4.11),
    ("CCCCCCCCCCCCCCCCCC(=O)NC[C@H](COP(=O)(O)OC[C@H]1O[C@@](C#N)(c2ccc3c(N)ncnn23)[C@H](O)[C@@H]1O)OCc1cc(F)cc(C#N)c1", 2.98),
    ("CCCCCCCCCCCCCCCCCCC[C@H](COP(=O)(O)OC[C@H]1O[C@@](C#N)(c2ccc3c(N)ncnn23)[C@H](O)[C@@H]1O)OCc1ccc(C#N)c(F)c1", 2.95),
    ("CCCCCCCCCCCCCCCCCSCCCOP(=O)(O)OC[C@H]1O[C@@](C#N)(c2ccc3c(N)ncnn23)[C@H](O)[C@@H]1O", 4.38),
]
